Tested on: male mice (ICR)
Test: Muscle relaxation activity by grip strength test (forelimbs)
Format: in vivo
Settings: intraperitoneal, dose 200 (unit not given)
Task for the reader: assign each of the following compounds its reported Grip strength, percentage compared to the vehicle only (100%).

# example entries with known answers
1) NS(=O)(=O)OC[C@H]1OC2(CCCC2)O[C@@H]1Cc1ccccc1	200 (76.7%)
2) Nc1ccccc1[C@@H]1OC(c2ccccc2)O[C@H]1COS(N)(=O)=O (stereo partly shown)	200 (78.5%)
3) NS(=O)(=O)OCC[C@@H]1OC2(CCCCC2)O[C@H]1c1ccccc1Cl	200 (86.8%)

Query: GET /values?readout=Grip strength, percentage compared to the vehicle only (100%)&item= `NS(=O)(=O)OC[C@@H]1OC2(CCCC2)O[C@H]1c1ccccc1Cl`
Result: 200 (91.2%)
